molecular target: recombinant human Cox-2 (r-hu Cox-2) (Homo sapiens); construct: made in house; host or cells: baculovirus/Sf9 insect cells (microsomes); experiment: Recombinant human PGHS-2 enzyme assay (RHUCX2); format: biochemical; settings: 0.1 μM; read-out: RHUCX2 % Inh. at Dose
Sequence (P35354 18-604): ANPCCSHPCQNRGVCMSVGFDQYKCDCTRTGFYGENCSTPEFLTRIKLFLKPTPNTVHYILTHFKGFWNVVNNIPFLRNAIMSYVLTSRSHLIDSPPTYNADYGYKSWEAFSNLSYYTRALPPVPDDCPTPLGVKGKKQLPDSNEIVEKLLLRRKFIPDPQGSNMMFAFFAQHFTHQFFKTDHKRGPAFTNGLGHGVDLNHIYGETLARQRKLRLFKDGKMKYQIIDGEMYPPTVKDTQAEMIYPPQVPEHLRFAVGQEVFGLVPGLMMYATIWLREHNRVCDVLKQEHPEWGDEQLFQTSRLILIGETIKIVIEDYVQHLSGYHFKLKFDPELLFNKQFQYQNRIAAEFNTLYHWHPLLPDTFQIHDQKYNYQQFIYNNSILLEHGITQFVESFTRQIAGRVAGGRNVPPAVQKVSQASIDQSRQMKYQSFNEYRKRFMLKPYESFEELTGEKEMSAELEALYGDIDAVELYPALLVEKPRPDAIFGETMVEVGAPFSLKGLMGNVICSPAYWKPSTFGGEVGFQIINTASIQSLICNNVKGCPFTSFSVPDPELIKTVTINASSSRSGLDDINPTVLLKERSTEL
Recorded inhibition at 0.1 µM values for a group of compounds are listed next.
Field format: number, assumed %, no unit text.

Example cases with answers are listed next.
CS(=O)(=O)c1ccc(-c2cnn(CC(F)(F)F)c(=O)c2-c2ccc(F)c(Cl)c2)cc1 | 58
NS(=O)(=O)c1ccc(-c2cnn(-c3ccc(F)cc3)c(=O)c2-c2ccc(F)cc2)cc1F | 18

Any idea what its inhibition at 0.1 µM is? The compound is "NS(=O)(=O)c1ccc(-c2cnn(-c3ccc(F)c(Cl)c3)c(=O)c2-c2ccc(F)cc2)cc1"
62

Entry to check: "CC(C)CSCc1c(-c2ccc(S(C)(=O)=O)cc2)cnn(-c2ccc(F)cc2)c1=O"
23
